As a worked illustration, we turn to IC50 data collected for Son of sevenless homolog 1 (Homo sapiens).
One number for each entry, in nM.

[
  {
    "molecule": "Cc1nc(NC(C)c2cc(-c3ccccc3CNCCO)cs2)c2cc3c(cc2n1)OCCO3 (racemic)",
    "IC50, nM": 45
  }
]

List the reported IC50 of each molecule below.
1. COc1cc2ncnc(NC(C)c3cc(-c4ccccc4CNCCO)cs3)c2cc1OC (racemic)
2. CNCc1ccccc1-c1csc(C(C)Nc2ncnc3cc(OC)c(OC)cc23)c1 (racemic)
3. CNCc1ccccc1-c1csc(C(C)Nc2ncnc3cc4c(cc23)OCCO4)c1 (racemic)
4. CNCc1ccccc1-c1csc(C(C)Nc2nc(C)nc3cc4c(cc23)OCCO4)c1 (racemic)
5. COc1cc2ncnc(NC(C)c3ccc(-c4ccccc4CNCCO)s3)c2cc1OC (racemic)

(A)
1. 18
2. 20
3. 97
4. 27
5. 8.5
